- Assayed system: CDK5/CDK5R1 (Homo sapiens)
- Sequence (Q00535 whole entry): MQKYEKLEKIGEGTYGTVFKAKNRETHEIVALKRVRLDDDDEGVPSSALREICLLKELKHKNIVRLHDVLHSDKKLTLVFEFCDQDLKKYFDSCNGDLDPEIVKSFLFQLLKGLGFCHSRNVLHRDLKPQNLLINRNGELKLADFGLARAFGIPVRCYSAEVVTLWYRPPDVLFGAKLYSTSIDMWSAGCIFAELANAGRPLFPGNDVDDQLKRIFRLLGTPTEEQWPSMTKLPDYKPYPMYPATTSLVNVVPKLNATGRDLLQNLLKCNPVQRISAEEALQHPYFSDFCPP
- Sequence (Q15078 whole entry partner): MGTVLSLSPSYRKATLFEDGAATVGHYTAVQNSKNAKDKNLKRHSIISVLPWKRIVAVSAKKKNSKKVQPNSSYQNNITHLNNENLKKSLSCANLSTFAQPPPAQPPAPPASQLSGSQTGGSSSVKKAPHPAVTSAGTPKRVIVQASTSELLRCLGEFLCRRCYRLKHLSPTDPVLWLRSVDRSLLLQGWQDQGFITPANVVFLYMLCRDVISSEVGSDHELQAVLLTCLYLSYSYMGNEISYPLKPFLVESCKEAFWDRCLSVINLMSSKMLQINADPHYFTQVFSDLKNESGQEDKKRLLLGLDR
- Test summary: NanoBRET live-cell target engagement, CDK5-NanoLuc/CDK5R1 in HEK-293
- Assay type: binding
- Cond: CDK5/CDK5R1; average
Endpoint: Inhibition at 10µM (%)

> print(dat)
                                   compound  value
1  CCn1cnc2c(Nc3cccc(Cl)c3)nc(N[C@@H]3CCCC[C@@H]3N)nc21 [CGP74514A]   93.3
2  CN1CCC(c2c(O)cc(O)c3c(=O)cc(-c4ccccc4Cl)oc23)C1CO (stereo not drawn) [P276-00]   26.1
3  CC(C)c1cnn2c(NCc3ccccc3-n3cccn3)nc(OC3CCCNC3)nc12 (stereo not drawn) [LDC4297]   89.8
4  CS(=O)(=O)N1CCC(NC(=O)c2[nH]ncc2NC(=O)c2c(Cl)cccc2Cl)CC1 [NVP-LCQ195]   93.1
5  CNc1nc(C)c(-c2nc(Nc3cccc(S(N)(=O)=O)c3)ncc2F)s1 [CDKI-73]   90.6
6  CC(C)c1c2cc(-c3ccnc(N[C@H]4CC[C@H](NC5CCOCC5)CC4)n3)ccc2nn1C [LY2857785]   68.7
